- System: HCT-116
- Test method notes: Cytotoxicity against CD133 positive human HCT116 cells
- Type: functional, cell-based
Parameter: IC50 (nM)
Give bare numbers, in nM.

Below are 5 compounds. Give each one its IC50.
1. CC(=O)O[C@H]1C(=O)[C@@]2(C)[C@H]([C@H](OC(=O)c3ccccc3)[C@]3(O)C[C@H](OC(=O)[C@H](O)[C@@H](NC(=O)c4ccccc4)c4ccccc4)C(C)=C1C3(C)C)[C@]1(OC(C)=O)CO[C@@H]1C[C@@H]2O
2. CC(=O)O[C@@]12CO[C@@H]1C[C@H](O)[C@@]1(C)C(=O)[C@H](OC(=O)N(C)C)C3=C(C)[C@@H](OC(=O)[C@H](O)[C@H](C=C(C)C)NC(=O)OC(C)(C)C)C[C@@](O)([C@@H](OC(=O)c4ccccc4)[C@H]21)C3(C)C
3. COc1cccc2c1C(=O)c1c(O)c3c(c(O)c1C2=O)C[C@@](O)(C(=O)CO)C[C@@H]3O[C@H]1C[C@H](N)[C@H](O)[C@H](C)O1
4. CC[C@@]1(O)C(=O)OCc2c1cc1n(c2=O)Cc2cc3c(CN(C)C)c(O)ccc3nc2-1
5. CN(Cc1cnc2nc(N)nc(N)c2n1)c1ccc(C(=O)N[C@@H](CCC(=O)O)C(=O)O)cc1 [METHOTREXATE]

Result block:
33.8
0.83
78
451
32.7

Just for reference, ChEMBL document CHEMBL4251666 is where these values come from.
